Record form. Attribute: Kd. Fill in for each entry.
biological target: T1, RSV-F.mmh (Respiratory Syncytial Virus); experiment: SPR (Biacore), mAb captured via Fc, soluble RSV-F.mmh injected, 25 C
T1 construct: also called recombinant RSV-F; soluble monomeric RSV-F
In your response, the unit should come after the numeric value.

// worked examples, Kd included
{"Binder": "H1H3566P (antibody, V domains shown) VH: QVQLVESGGGVVQPGRSLRLSCAASGFTFSSYGMHWVRQAPGKGLEWVVFLWYDGSNKHYADSVKGRFTISRDNSKNTLYLQMNSLRAEDTAVYYCARSGLASYYYYSMDVWGQGTTVTVSS VL: DIQMTQSPSSLSASVGDRVTITCRASQGIRNDLAWYQQKPGKAPKRLIYGASSLHSGVPSRFSGSGSGTEFTLTISSLQPEDFATYSCLQHNSYPWTFGQGTKVEIK", "Kd": "2.06 nM"}
{"Binder": "H1H3627N (antibody, V domains shown) VH: EVQLVESGGGLVQPGGSLRLSCAASGFTISNYEMNWVRQAPGKGLEWVSYISTSGITIYYADSVQGRFTISRDNAKNSLYLQLNSLRAEDTAVYYCARGYCTNGVCYPHYYYSDMDVWGQGTTVTVSS VL: DIQMTQSPSSLSASVGDRLTITCRASQTISTYLNWFQQKVGNAPKLLIYSTSSLQSGVPARFSGSGSGTDFTLTISSLQPEDFATYYCQQSYSSPPTFGQGTKVEIK", "Kd": "0.581 nM"}

Query string: Name the recorded Kd of the binder listed here: H1H3603P (antibody, V domains shown) VH: QVQLQESGPGLVKPSETLSLTCTVSGGSISGYYWTWIRQPPGKGLEWIGYIYYSGATNYNPSLKSRVTISLDTSKNQFSLKLSSVTAADTAVYYCARDGNYDILTGYYNYHYYGMDVWGQGTTVTVSS VL: DIQMTQSPSSLSASVGDRVTITCRASQDIGNYLAWFQQKPGKAPESLIYAASILQSGVPSKFSGSGSGTDFTLTISSLQPEDFATYYCQQYNTFPWTFGQGTKVEIK
Result string: 41 nM
